target: Tyrosine-protein kinase ABL1 (Homo sapiens) (UniProt P00519); conditions: Compound concentration 20.0 uM
Sequence (P00519 whole entry): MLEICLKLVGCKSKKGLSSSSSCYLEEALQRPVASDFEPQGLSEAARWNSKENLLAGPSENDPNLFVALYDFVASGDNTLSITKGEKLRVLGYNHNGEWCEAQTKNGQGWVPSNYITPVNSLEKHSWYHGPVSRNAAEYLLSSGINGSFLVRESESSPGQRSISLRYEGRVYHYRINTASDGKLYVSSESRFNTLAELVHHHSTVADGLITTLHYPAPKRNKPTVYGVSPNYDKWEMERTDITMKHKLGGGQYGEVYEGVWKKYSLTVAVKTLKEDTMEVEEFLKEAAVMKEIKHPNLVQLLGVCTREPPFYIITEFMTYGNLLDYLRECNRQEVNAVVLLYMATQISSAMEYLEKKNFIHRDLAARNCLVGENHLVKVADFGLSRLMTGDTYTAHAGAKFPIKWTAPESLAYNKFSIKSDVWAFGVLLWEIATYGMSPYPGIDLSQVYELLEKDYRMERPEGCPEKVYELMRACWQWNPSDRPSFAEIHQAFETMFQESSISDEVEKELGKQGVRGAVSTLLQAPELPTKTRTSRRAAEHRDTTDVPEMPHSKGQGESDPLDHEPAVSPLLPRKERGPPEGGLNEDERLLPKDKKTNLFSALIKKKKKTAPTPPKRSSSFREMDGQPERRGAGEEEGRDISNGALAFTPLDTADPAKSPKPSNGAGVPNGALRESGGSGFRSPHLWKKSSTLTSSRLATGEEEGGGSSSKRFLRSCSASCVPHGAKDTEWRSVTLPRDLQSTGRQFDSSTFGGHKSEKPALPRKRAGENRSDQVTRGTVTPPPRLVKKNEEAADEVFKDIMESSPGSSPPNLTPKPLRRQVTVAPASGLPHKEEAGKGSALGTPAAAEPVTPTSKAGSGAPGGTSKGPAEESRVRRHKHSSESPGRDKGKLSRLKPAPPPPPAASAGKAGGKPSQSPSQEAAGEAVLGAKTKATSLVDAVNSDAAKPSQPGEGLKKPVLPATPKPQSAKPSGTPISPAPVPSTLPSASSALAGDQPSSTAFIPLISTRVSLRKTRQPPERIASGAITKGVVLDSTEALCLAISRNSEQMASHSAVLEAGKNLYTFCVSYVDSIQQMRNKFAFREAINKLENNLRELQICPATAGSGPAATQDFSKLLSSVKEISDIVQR
Description: Thermal Shift Assay. Domain: start/stop: S229-K512
Property Measured: ΔTm (°C)
Kindly provide the numeric value in °C only, without the unit symbol.

Worked set:
[[record]]
molecule = "COc1cn(-c2ccc(-n3cccn3)cc2F)nc(-c2ccnn2-c2ccccc2)c1=O"
result_units = "°C"
readout_value = 0.53

[[record]]
molecule = "O=C(N1CCCC[C@@H]1Cc1ccccc1)n1cc(-c2ccc(-c3ccccc3)cc2)nn1"
result_units = "°C"
readout_value = 0.24

[[record]]
molecule = "N#Cc1nc2c(nc1C#N)-c1ccccc1C2=NOCc1ccccc1"
result_units = "°C"
readout_value = 0.19

[[record]]
molecule = "C[C@]12CC[C@@H]3c4ccc(O)cc4C[C@@H](CCCCCCCCC[S+]([O-])CCCC(F)(F)C(F)(F)F)[C@H]3[C@@H]1CC[C@@H]2O (stereo partly drawn)"
result_units = "°C"
readout_value = -4.09

[[record]]
molecule = "O=C(NCCCCc1ccccc1)n1c(=O)oc2cc(-c3ccc(F)cc3)ccc21"
result_units = "°C"
readout_value = 0.52


Item: CC(C)=C[C@H]1C[C@H](C)[C@]2(CC[C@]3(C)C[C@H]4[C@H](C(=O)C[C@@]4(C)O)/C(C=O)=C\C[C@H]32)O1 | ΔTm: -0.34

Lab note: CCS(=O)(=O)N1CCC([C@@H](C)n2c(C)c(C(=O)NCc3c(OC)cc(C)[nH]c3=O)c3ccccc32)CC1 gave ΔTm of 0.06

Lookup result for Nc1cc2c3c(c1)C(c1ccccc1)=N[C@@H](NC(=O)c1cccnc1)C(=O)N3CC2 ; measured ΔTm: 0.6

###

This section presents compounds with their documented ΔTm values.
target: Transcription intermediary factor 1-alpha (Homo sapiens); settings: Compound concentration 20.0 uM
Give just the number in °C; leave the unit off.

Guide cases for ΔTm, answers given:
[[record]]
structure_string = "COc1ccc(N(C(=O)Oc2c(C)cccc2C)c2ccnc(Nc3ccc(N4CCN(C)CC4)cc3)n2)c(OC)c1"
target_of_assay = "Transcription intermediary factor 1-alpha (Homo sapiens)"
property_measured = "ΔTm"
readout_value = -0.91

[[record]]
structure_string = "O=C(NNc1ccccn1)c1ccccn1"
target_of_assay = "Transcription intermediary factor 1-alpha (Homo sapiens)"
property_measured = "ΔTm"
readout_value = 0.92

[[record]]
structure_string = "O=[N+]([O-])c1cc(O)c(O)c([N+](=O)[O-])c1"
target_of_assay = "Transcription intermediary factor 1-alpha (Homo sapiens)"
property_measured = "ΔTm"
readout_value = 3.59

[[record]]
structure_string = "CN1[C@@H]2CC[C@H]1C[C@@H](OC(c1ccc(F)cc1)c1ccc(F)cc1)C2"
target_of_assay = "Transcription intermediary factor 1-alpha (Homo sapiens)"
property_measured = "ΔTm"
readout_value = -0.2


Observed ΔTm on Transcription intermediary factor 1-alpha (Homo sapiens), entry C(=C\c1ccccc1)/CN1CCN(CCOC(c2ccccc2)c2ccccc2)CC1 , equals -2.32

// returns ΔTm for C/C(=N\NC(=O)c1cccc(S(=O)(=O)N2CCOCC2)c1)c1cc(Cl)ccc1O with Transcription intermediary factor 1-alpha (Homo sapiens); value = 2.31

###

// reported ΔTm for each item listed
molecular target: Glycogen synthase kinase-3 beta (Homo sapiens) (UniProt P49841); details: Compound concentration 20.0 uM
Sequence (P49841 whole entry, looked up): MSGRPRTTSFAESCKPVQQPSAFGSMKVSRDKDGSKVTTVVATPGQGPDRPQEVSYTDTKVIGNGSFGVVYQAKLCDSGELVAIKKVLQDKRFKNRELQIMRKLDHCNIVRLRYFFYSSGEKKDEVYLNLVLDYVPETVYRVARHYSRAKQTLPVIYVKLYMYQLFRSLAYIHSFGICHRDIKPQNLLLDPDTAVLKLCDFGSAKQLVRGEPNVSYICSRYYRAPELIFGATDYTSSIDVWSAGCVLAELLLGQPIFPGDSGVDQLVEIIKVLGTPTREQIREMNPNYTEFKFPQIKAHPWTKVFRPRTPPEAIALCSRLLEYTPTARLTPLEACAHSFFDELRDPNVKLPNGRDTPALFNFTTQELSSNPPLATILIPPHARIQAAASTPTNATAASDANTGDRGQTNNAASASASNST
Description: Thermal Shift Assay. Domain: start/stop: M26-R383
I only need the number, in °C, no unit after it.

// ΔTm value for CN(C)NC(=O)CCC(=O)O : -0.76

// field: ΔTm; key: O=C(N1CCCC[C@H]1Cc1ccccc1)n1cc(-c2ccc(-c3ccccc3)cc2)nn1 ; value = -2.39

// sample COc1ccc(C(CN(C)C)C2(O)CCCCC2)cc1 (stereo not given) , its ΔTm was -0.27

Just so you know, measured ΔTm for Nc1cccc(CNC(=O)c2ccc(Oc3ccc(OCc4cccc(F)c4)cc3)nc2)c1 came out at 1.13

Summary for this compound, Nc1cc2c3c(c1)C(c1ccccc1)=N[C@@H](NC(=O)c1cccnc1)C(=O)N3CC2 : ΔTm is -0.38

###

target: Tyrosine-protein kinase ABL1 (Homo sapiens) (UniProt P00519); conditions: Compound concentration 20.0 uM
Entries are grouped by ΔTm into these classes: small value = under 0.1 °C, mid value = from 0.1 °C up to 0.5 °C, large value = 0.5 °C and over

Some solved cases for reference:
[[record]]
compound = "CN1[C@@H]2CC[C@H]1C[C@@H](OC(c1ccc(F)cc1)c1ccc(F)cc1)C2"
answer_label = "large value"

[[record]]
compound = "O=C(O)C1=CCCN(CCOC(c2ccc(C(F)(F)F)cc2)c2ccc(C(F)(F)F)cc2)C1"
answer_label = "large value"

[[record]]
compound = "C=CCO/N=C1\\c2ccccc2-c2nc(C#N)c(C#N)nc21"
answer_label = "mid value"


Would you mind sorting COC(=O)C[C@@H]1N=C(c2ccc(Cl)cc2)c2c(sc(C)c2C)-n2c(C)nnc21 into the appropriate category?
small value

# bin lookup: classify Cc1sc2c(c1C)C(c1ccc(Cl)cc1)=N[C@@H](CC(=O)OC(C)(C)C)c1nnc(C)n1-2 by its ΔTm
mid value

Bin this entry: Nc1cccc(CNC(=O)c2ccc(Oc3ccc(OCc4cccc(F)c4)cc3)nc2)c1
large value

Determine which band this compound sits in: Cc1ccc(N2C(=O)/C(=C/C=C/c3ccco3)C(=O)NC2=S)cc1Cl
large value

Which category fits this record: O=C(N1CCCC[C@H]1Cc1ccccc1)n1cc(-c2ccc(-c3ccccc3)cc2)nn1
small value

###

molecular target: Glycogen synthase kinase-3 beta (Homo sapiens); conditions: Compound concentration 20.0 uM
Property Measured: ΔTm (°C)
Form entry: value (°C) — number only.

[[record]]
structure_string = "N#Cc1ccc([C@H]2CCCC[C@H]2O)cc1C(F)(F)F"
property_measured = "ΔTm"
readout_value = -0.43

[[record]]
structure_string = "COC(=O)C[C@@H]1N=C(c2ccc(Cl)cc2)c2c(sc(C)c2C)-n2c(C)nnc21"
property_measured = "ΔTm"
readout_value = -0.01

[[record]]
structure_string = "CS(=O)(=O)Nc1ccc(-c2coc3cc(OCc4cccc(C(=O)O)c4)ccc3c2=O)cc1"
property_measured = "ΔTm"
readout_value = -0.46


The observed ΔTm for CC(C)=C[C@H]1C[C@H](C)[C@]2(CC[C@]3(C)C[C@H]4[C@H](C(=O)C[C@@]4(C)O)/C(C=O)=C\C[C@H]32)O1 when tested with Glycogen synthase kinase-3 beta (Homo sapiens) stands at -0.53

###

Measured ΔTm accompanies every entry in the list below.
molecular target: Cyclin-dependent kinase 2 (Homo sapiens) (UniProt P24941); details: Compound concentration 20.0 uM
Description: Thermal Shift Assay. Domain: start/stop: M1-L298
Non-standard residues stand in square brackets, D forms with d. Residues, ends and D or L forms follow the SMILES beside them. *: point of attachment. Benzoyl(4-OPh) = O=C(c1ccc(Oc2ccccc2)cc1)*; Lys(Et2) = CCN(CC)CCCC[C@H](N)C(=O)O; d(aIle) = CC[C@H](C)[C@@H](N)C(=O)O; Gly(cPent) = N[C@H](C(=O)O)C1CCCC1; NH(propargyl) = C#CCN*
Answer format: numeric, °C implied, no suffix.

[[record]]
molecule = "N#Cc1ccc([C@H]2CCCC[C@H]2O)cc1C(F)(F)F"
target_of_assay = "Cyclin-dependent kinase 2 (Homo sapiens) (UniProt P24941)"
result_units = "°C"
readout_value = 0.11

[[record]]
molecule = "CCS(=O)(=O)N1CCC([C@@H](C)n2c(C)c(C(=O)NCc3c(OC)cc(C)[nH]c3=O)c3ccccc32)CC1"
target_of_assay = "Cyclin-dependent kinase 2 (Homo sapiens) (UniProt P24941)"
result_units = "°C"
readout_value = 0.2

[[record]]
molecule = "N#Cc1ccc(N2N=C3c4ccc(C(=O)O)cc4CC[C@@H]3[C@@H]2C2CCCC2)cc1Cl"
target_of_assay = "Cyclin-dependent kinase 2 (Homo sapiens) (UniProt P24941)"
result_units = "°C"
readout_value = -2.04

[[record]]
molecule = "CNC(=O)c1cc(C(=O)NC2CC2)cn(Cc2ccccc2)c1=O"
target_of_assay = "Cyclin-dependent kinase 2 (Homo sapiens) (UniProt P24941)"
result_units = "°C"
readout_value = 0.1

[[record]]
molecule = "CCCCCn1c(C)c(C(=O)c2cccc3ccccc23)c2ccccc21"
target_of_assay = "Cyclin-dependent kinase 2 (Homo sapiens) (UniProt P24941)"
result_units = "°C"
readout_value = 0.76

[[record]]
molecule = "COc1ccc(N(C(=O)Oc2c(C)cccc2C)c2ccnc(Nc3ccc(N4CCN(C)CC4)cc3)n2)c(OC)c1"
target_of_assay = "Cyclin-dependent kinase 2 (Homo sapiens) (UniProt P24941)"
result_units = "°C"
readout_value = 0.75


Assay Cyclin-dependent kinase 2 (Homo sapiens) (UniProt P24941), sample O=C(N1CCCC[C@@H]1Cc1ccccc1)n1cc(-c2ccc(-c3ccccc3)cc2)nn1 , ΔTm read: 0.21

Bench note, Cyclin-dependent kinase 2 (Homo sapiens) (UniProt P24941): O=C1C(P(=O)(O)O)CCCN1O (configuration not stated) , ΔTm reads 0.09

Note to self: ΔTm of C#CCNC(=O)[C@H](CO)NC(=O)[C@H](CCCCN(CC)CC)NC(=O)[C@H](NC(=O)[C@@H](NC(=O)c1ccc(Oc2ccccc2)cc1)C1CCCC1)[C@@H](C)CC ({Benzoyl(4-OPh)}-[Gly(cPent)][d(aIle)][Lys(Et2)]S-{NH(propargyl)}) with Cyclin-dependent kinase 2 (Homo sapiens) (UniProt P24941) was -0.21

Fill in: Cyclin-dependent kinase 2 (Homo sapiens) (UniProt P24941) ΔTm for O=C(NCCCCc1ccccc1)n1c(=O)oc2cc(-c3ccc(F)cc3)ccc21 = 0.86

Item COc1cc(C)[nH]c(=O)c1CNC(=O)c1c(C)n([C@H](C)C2CCN(CC(F)(F)F)CC2)c2ccccc12 was tested on Cyclin-dependent kinase 2 (Homo sapiens) (UniProt P24941); the reported ΔTm is -0.09

ΔTm of O=C1Cc2cc(C(=O)N[C@@H]3C[C@H]4CC[C@@H](C3)N4S(=O)(=O)CC3CCN(CCCC(F)(F)F)CC3)c(Cl)cc2N1 , assay on Cyclin-dependent kinase 2 (Homo sapiens) (UniProt P24941), is 0.34

Considering Nc1cccc(CNC(=O)c2ccc(Oc3ccc(OCc4cccc(F)c4)cc3)nc2)c1 , its ΔTm with Cyclin-dependent kinase 2 (Homo sapiens) (UniProt P24941) was recorded as 0.38

Bench note, Cyclin-dependent kinase 2 (Homo sapiens) (UniProt P24941): entry C/C(=N\NC(=O)c1cccc(S(=O)(=O)N2CCOCC2)c1)c1cc(Cl)ccc1O , its ΔTm = 0.83

Cc1sc2c(c1C)C(c1ccc(Cl)cc1)=N[C@@H](CC(=O)OC(C)(C)C)c1nnc(C)n1-2 tested on Cyclin-dependent kinase 2 (Homo sapiens) (UniProt P24941) gave ΔTm: 0

For the molecule Cc1ccc(N2C(=O)/C(=C/C=C/c3ccco3)C(=O)NC2=S)cc1Cl , the measured ΔTm on Cyclin-dependent kinase 2 (Homo sapiens) (UniProt P24941) was -0.73

Short answer on Cyclin-dependent kinase 2 (Homo sapiens) (UniProt P24941) for C[C@]12CC[C@@H]3c4ccc(O)cc4C[C@@H](CCCCCCCCC[S+]([O-])CCCC(F)(F)C(F)(F)F)[C@H]3[C@@H]1CC[C@@H]2O (some centres not stated) , ΔTm: 0

// ΔTm (Cyclin-dependent kinase 2 (Homo sapiens) (UniProt P24941)) for C=CCO/N=C1\c2ccccc2-c2nc(C#N)c(C#N)nc21 = 0.55

Hey, Cyclin-dependent kinase 2 (Homo sapiens) (UniProt P24941) data for COc1cc(C)[nH]c(=O)c1CNC(=O)c1c(C)n([C@H](C)C2CCOCC2)c2ccccc12 : ΔTm came out at 0.11

Item N[C@H]1CC[C@H](N[C@@H]2C[C@H]2c2ccccc2)CC1 ; assay system Cyclin-dependent kinase 2 (Homo sapiens) (UniProt P24941); ΔTm reported as 0.04

GET /values?item= Nc1cc2c3c(c1)C(c1ccccc1)=N[C@@H](NC(=O)c1cccnc1)C(=O)N3CC2 &system= Cyclin-dependent kinase 2 (Homo sapiens) (UniProt P24941) returns ΔTm: 0.3

Entry CN1[C@@H]2CC[C@H]1C[C@@H](OC(c1ccc(F)cc1)c1ccc(F)cc1)C2 : ΔTm on Cyclin-dependent kinase 2 (Homo sapiens) (UniProt P24941) = 0.08
